# system-under-test: T1, human 5T4-His protein (human, UniProt Q13641 32-355)
# T1 construct: also called recombinant 5T4 protein (human 5T4-his tag); human 5T4 protein; not shown: His tag
# T1 sequence (looked up): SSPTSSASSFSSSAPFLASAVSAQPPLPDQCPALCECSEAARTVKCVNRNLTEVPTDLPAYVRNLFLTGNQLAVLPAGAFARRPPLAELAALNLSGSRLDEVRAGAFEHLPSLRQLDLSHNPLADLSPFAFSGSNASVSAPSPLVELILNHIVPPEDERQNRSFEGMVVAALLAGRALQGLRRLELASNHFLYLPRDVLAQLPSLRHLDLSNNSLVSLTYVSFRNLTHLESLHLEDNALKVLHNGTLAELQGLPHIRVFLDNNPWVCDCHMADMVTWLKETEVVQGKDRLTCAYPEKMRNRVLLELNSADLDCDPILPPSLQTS
# assay-remarks: SPR Biacore, Protein A capture, 50 nM 5T4-His

binder	kon (M⁻¹ s⁻¹)
Hu159D5-1 (antibody, V domains shown, humanized) VH: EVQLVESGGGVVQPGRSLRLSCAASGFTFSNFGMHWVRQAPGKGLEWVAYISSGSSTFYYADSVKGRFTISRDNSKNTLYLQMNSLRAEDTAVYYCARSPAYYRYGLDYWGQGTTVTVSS VL: DIVMTQTPLSLSVTPGQPASISCRASQSVSSSTFSYMHWYQQKPGQPPQLLIYSSSNLESGVPDRFSGSGSGTDFTLKISRVEAEDVGVYYCQHSWEIPYTFGGGTKVEIK	73700
Hu159D5-11 (antibody, V domains shown, humanized) VH: EVQLVESGGGVVQPGRSLRLSCAASGFTFSNFGMHWVRQAPGKGLEWVAYISSGSSTFYYADSVKGRFTISRDNSKNTLYLQMNSLRAEDTAVYFCARSPAYYRYGLDYWGQGTTVTVSS VL: DIVMTQSPDSLAVSLGERATINCRASQSVSSSTFSYMHWYQQKPGQPPKLLIKSSSNLESGVPDRFSGSGSGTDFTLTISSLQAEDVAVYYCQHSWEIPYTFGGGTKVEIK	257000
Hu159D5-12 (antibody, V domains shown, humanized) VH: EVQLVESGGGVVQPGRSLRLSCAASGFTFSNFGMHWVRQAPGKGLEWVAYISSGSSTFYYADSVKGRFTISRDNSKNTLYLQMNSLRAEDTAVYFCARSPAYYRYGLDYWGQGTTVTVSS VL: DIVLTQSPDSLAVSLGERATINCRASQSVSSSTFSYMHWYQQKPGQPPKLLIKSSSNLESGVPDRFSGSGSGTDFTLTISSLQAEDVAVYYCQHSWEIPYTFGGGTKVEIK	222000

From: patent US20250154277A1
